B1: library; a variant is named by its letters at N, in order (parent)
chain: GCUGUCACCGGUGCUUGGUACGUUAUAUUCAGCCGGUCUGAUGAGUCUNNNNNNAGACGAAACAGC

- Variants of: B1
- Measurement description: normalized RNA/DNA level without ligand (relative to sTRSVctl = 100) (log10 (% of sTRSVctl)); HEK293T overexpressing SLC46A1; higher = less ribozyme self-cleavage, higher mRNA level
- Assay conditions: without (6R,S)-folinic acid; ligand present: no
Readout name: normalized RNA/DNA level without ligand (log10)
Output: the number by itself.

## Task # get_value(readout='normalized RNA/DNA level without ligand (log10)', item= GCUGUCACCGGUGCUUGGUACGUUAUAUUCAGCCGGUCUGAUGAGUCUUCGCGGAGACGAAACAGC )
## Result 2.07

## Task # get_value(readout='normalized RNA/DNA level without ligand (log10)', item= GCUGUCACCGGUGCUUGGUACGUUAUAUUCAGCCGGUCUGAUGAGUCUGACACAAGACGAAACAGC )
## Result 1.99

## Task # get_value(readout='normalized RNA/DNA level without ligand (log10)', item= GCUGUCACCGGUGCUUGGUACGUUAUAUUCAGCCGGUCUGAUGAGUCUAUGUUGAGACGAAACAGC )
## Result 1.89

## Task # get_value(readout='normalized RNA/DNA level without ligand (log10)', item= GCUGUCACCGGUGCUUGGUACGUUAUAUUCAGCCGGUCUGAUGAGUCUCGAGUGAGACGAAACAGC )
## Result 1.96

## Task # get_value(readout='normalized RNA/DNA level without ligand (log10)', item= GCUGUCACCGGUGCUUGGUACGUUAUAUUCAGCCGGUCUGAUGAGUCUCGGUGGAGACGAAACAGC )
## Result 1.93

Query variant follows.
## Task # get_value(readout='normalized RNA/DNA level without ligand (log10)', item= GCUGUCACCGGUGCUUGGUACGUUAUAUUCAGCCGGUCUGAUGAGUCUCUGUUUAGACGAAACAGC )
## Result 2.02
